Target: μ-opioid receptors (MOP receptors) (Mus musculus)
Construct: expressed in transfected cells; host or cells: HEK293
Assay type: cell-based
Settings: Conc 10^−17 M
Marks after values point to notes of the source that are not given here.
Quick reference for % of forskolin stimulated cyclic AMP response among some compounds
REPORTED_PROPERTY: % of forskolin stimulated cyclic AMP response

• [O-][n+]1onc(-c2ccccc2)c1CO [Compound 31] = 48.5^a %
• O=C(c1no[n+]([O-])c1-c1ccccc1)C(F)(F)F [Compound 22] = 59.4^b %
• CC(=O)c1c(-c2ccccc2)no[n+]1[O-] [Compound 27] = 108.6^a %

====

# % of forskolin stimulated cyclic AMP response listing for each entry below
Target: μ-opioid receptors (MOP receptors) (Mus musculus, UniProt P42866)
Construct: expressed in transfected cells; host or cells: HEK293
Sequence (P42866 whole entry): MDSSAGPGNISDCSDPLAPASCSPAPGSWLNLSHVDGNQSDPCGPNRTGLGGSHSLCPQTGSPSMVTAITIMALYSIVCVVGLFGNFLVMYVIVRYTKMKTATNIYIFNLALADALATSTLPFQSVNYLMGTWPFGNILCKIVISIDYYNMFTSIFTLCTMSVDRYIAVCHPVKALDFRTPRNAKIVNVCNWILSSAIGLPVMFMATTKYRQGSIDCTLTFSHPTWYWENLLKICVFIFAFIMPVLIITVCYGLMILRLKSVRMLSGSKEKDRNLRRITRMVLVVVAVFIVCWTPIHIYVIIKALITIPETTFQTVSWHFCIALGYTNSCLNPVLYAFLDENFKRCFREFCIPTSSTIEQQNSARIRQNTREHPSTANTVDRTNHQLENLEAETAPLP
Format: cell-based
Details: Conc 10^−12 M
REPORTED_PROPERTY: % of forskolin stimulated cyclic AMP response (%)

• Cc1c(-c2ccc(F)cc2)no[n+]1[O-] = 74.7
• [O-][n+]1onc(-c2ccccc2)c1CO = 81.4
• O=Cc1c(-c2ccccc2)no[n+]1[O-] = 92.8
• [O-][n+]1onc(-c2ccccc2)c1-c1ccccc1 = 119.1
• COc1ccc(-c2no[n+]([O-])c2C)cc1 = 90.1
• O=C1CCc2c1no[n+]2[O-] = 59.3
• CCc1c(C(=O)O)no[n+]1[O-] = 128.3
• Cc1c(C(=O)O)no[n+]1[O-] = 91.1
• Cc1c(-c2ccccc2)no[n+]1[O-] = 108.8

====

Each item that follows carries a reported % of forskolin stimulated cyclic AMP response.
Target: μ-opioid receptors (MOP receptors) (Mus musculus)
Construct: expressed in transfected cells; host or cells: HEK293
Assay type: cell-based
Conditions: Conc 10^−4 M
Marks after values point to notes of the source that are not given here.
REPORTED_PROPERTY: % of forskolin stimulated cyclic AMP response

• O=Cc1c(-c2ccccc2)no[n+]1[O-] = 40.7^a %
• [O-][n+]1onc(-c2ccccc2)c1CO = 182.4^a %
• CCc1c(C(=O)O)no[n+]1[O-] = 68.2%
• COc1ccc(-c2no[n+]([O-])c2C)cc1 = 106.7^a %
• CC(=O)c1c(-c2ccccc2)no[n+]1[O-] = 73.8^a %

====

Target: μ-opioid receptors (MOP receptors) (Mus musculus)
Construct: expressed in transfected cells; host or cells: HEK293
Assay type: cell-based
Settings: Conc 10^−18 M
Marks after values point to notes of the source that are not given here.
# % of forskolin stimulated cyclic AMP response values compiled below
REPORTED_PROPERTY: % of forskolin stimulated cyclic AMP response

- O=C(O)c1c(-c2ccc(F)cc2)no[n+]1[O-]: 54.7^a %
- COc1ccc(-c2no[n+]([O-])c2C)cc1: 70.0%
- O=C1CCc2c1no[n+]2[O-]: 62.4^a %

====

Biological target: μ-opioid receptors (MOP receptors) (Mus musculus, UniProt P42866)
Construct: expressed in transfected cells; host or cells: HEK293
Format: cell-based
Settings: Conc 10^−10 M
Quick reference: % of forskolin stimulated cyclic AMP response of the listed items.
REPORTED_PROPERTY: % of forskolin stimulated cyclic AMP response (%)

* O=C(O)c1c(-c2ccc(F)cc2)no[n+]1[O-] | 83.6
* COc1ccc(-c2no[n+]([O-])c2C)cc1 | 60.2
* O=Cc1c(-c2ccccc2)no[n+]1[O-] | 69.5
* O=C(c1no[n+]([O-])c1-c1ccccc1)C(F)(F)F | 66.1
* [O-][n+]1onc(-c2ccc(F)cc2)c1-c1ccc(F)cc1 | 38.4
